Readings of IC50 for the listed molecules
Tested on: MCF-7 cells
MEASUREMENT PROTOCOL: CCK-8 proliferation assay, MCF-7
Format: cell-based, human
CONDITIONS: Homo sapiens, MCF7; 48 h, CCK-8, mean ± SD
Form entry: value (µM) — number only.

// known answers, use as guide
1. COc1cc(N2C(=O)[C@H](c3ccc(F)cc3)[C@H]2c2cccc(N=[N+]=[N-])c2)cc(OC)c1OC (relative stereo); 4
2. COc1cc(N2C(=O)[C@H](c3ccccc3)[C@H]2c2ccc(N=[N+]=[N-])cc2)cc(OC)c1OC (relative stereo); 0.338
3. COc1cccc([C@H]2C(=O)N(c3cc(OC)c(OC)c(OC)c3)[C@@H]2c2ccc(N=[N+]=[N-])cc2)c1 (relative stereo); 2.88
4. COc1cccc([C@H]2C(=O)N(c3cc(OC)c(OC)c(OC)c3)[C@@H]2c2cccc(N=[N+]=[N-])c2)c1 (relative stereo); 2.88

// COc1ccc([C@H]2C(=O)N(c3cc(OC)c(OC)c(OC)c3)[C@@H]2c2ccc(N=[N+]=[N-])cc2)cc1 (relative stereo) : IC50 value = 1.07

====

pIC50 values, listed per item
System: MCF-7 cells
MEASUREMENT PROTOCOL: CCK-8 proliferation assay, MCF-7
Format: cell-based, human
CONDITIONS: Homo sapiens, MCF7; 48 h, CCK-8, mean ± SD
// pIC50 here means minus log10 of the molar concentration (mol/L)

Reference set, count: 2
1) COc1cc(N2C(=O)[C@@H](c3ccccc3)[C@@H]2c2cccc(N=[N+]=[N-])c2)cc(OC)c1OC (relative stereo); 6.09
2) COc1cc(N2C(=O)[C@H](c3cccs3)[C@H]2c2ccc(N=[N+]=[N-])cc2)cc(OC)c1OC (relative stereo); 6.81

# evaluate next
The measured pIC50 that COc1cc(N2C(=O)[C@H](c3cccs3)[C@H]2c2cccc(N=[N+]=[N-])c2)cc(OC)c1OC (relative stereo) showed for MCF-7 cells is 6.38

====

READOUT KIND: melting point

1) COc1cc(N2C(=O)[C@@H](c3ccccc3)[C@@H]2c2cccc(N=[N+]=[N-])c2)cc(OC)c1OC (relative stereo); 128 to 129 °C
2) COc1ccc(N2C(=O)[C@H](c3ccc(Cl)cc3)[C@H]2c2ccc(N=[N+]=[N-])cc2)cc1 (relative stereo); 147 to 149 °C
3) COc1ccc([C@@H]2C(=O)N(c3cc(OC)c(OC)c(OC)c3)[C@H]2c2ccc(-n3cc(-c4ccccc4)nn3)cc2)cc1 (relative stereo); 90 to 91 °C
4) COc1cc(N2C(=O)[C@@H](c3ccccc3)[C@@H]2c2ccc(-n3cc(COc4cccc([N+](=O)[O-])c4)nn3)cc2)cc(OC)c1OC (relative stereo); 142 to 145 °C

Documented melting point of COc1cc(N2C(=O)[C@H](c3ccccc3)[C@H]2c2ccc(N=[N+]=[N-])cc2)cc(OC)c1OC (relative stereo) : 66 to 68 °C

Measured melting point, COc1ccc(N2C(=O)[C@@H](c3ccccc3)[C@@H]2c2ccc(N=[N+]=[N-])cc2)cc1 (relative stereo) : 114 to 116 °C

====

Tested on: MCF-7 cells
MEASUREMENT PROTOCOL: CCK-8 proliferation assay, MCF-7
Assay type: cell-based, human
CONDITIONS: Homo sapiens, MCF7; 48 h, CCK-8, mean ± SD
READOUT KIND: IC50

1. COc1ccc([C@H]2C(=O)N(c3ccc(OC)c(OC)c3)[C@@H]2c2ccc(N=[N+]=[N-])cc2)cc1 [Compound 13]; > 20 µM
2. COc1cc(N2C(=O)[C@@](c3ccccc3)(S(=O)(=O)C(F)(F)F)[C@H]2c2cccc(N=[N+]=[N-])c2)cc(OC)c1OC [Compound 36]; > 20 µM

Switching to the query record.
Record COc1cccc([C@H]2C(=O)N(c3ccc(OC)c(OC)c3)[C@@H]2c2ccc(N=[N+]=[N-])cc2)c1 (relative stereo) [Compound 16] , field IC50: > 20 µM
